- studyTarget: Alpha-1A adrenergic receptor (Homo sapiens, UniProt P35348)
- Sequence (P35348 whole entry): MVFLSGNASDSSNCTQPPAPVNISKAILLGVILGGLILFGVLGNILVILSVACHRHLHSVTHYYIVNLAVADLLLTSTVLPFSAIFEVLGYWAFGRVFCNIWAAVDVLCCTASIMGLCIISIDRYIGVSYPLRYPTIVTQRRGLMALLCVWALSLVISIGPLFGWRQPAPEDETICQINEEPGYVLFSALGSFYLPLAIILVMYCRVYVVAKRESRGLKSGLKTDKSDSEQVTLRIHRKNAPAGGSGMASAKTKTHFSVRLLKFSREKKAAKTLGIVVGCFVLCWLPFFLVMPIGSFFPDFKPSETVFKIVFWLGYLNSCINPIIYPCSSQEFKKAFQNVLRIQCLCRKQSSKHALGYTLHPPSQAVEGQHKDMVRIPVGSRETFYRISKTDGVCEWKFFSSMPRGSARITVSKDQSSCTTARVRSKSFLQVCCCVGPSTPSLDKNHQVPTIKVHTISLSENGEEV
- experiment: PDSP Secondary Binding target: ADRA1A - Compounds are tested at 10 uM concentration, plate are incubated at room temperature in the dark for 90 minutes. Reaction are stopped by vacuum filtration onto 0.3% polyethyleneimine soaked filter mats using Filtermate harvester. Scintillation cocktail is then melted onto microwave-dried filters on a hot plate and the radio activity is counted in Microbia counter.
Where a name gives a salt, the structure may show the parent alone.
The recorded Ki of each item maps onto one of these classes: low (below 200 nM), mid (200 nM to below 700 nM), high (700 nM or more)

INSERT INTO assay_data (compound, assignedlabel) VALUES
  ('CN1C[C@H](C(=O)N[C@]2(C)O[C@@]3(O)[C@@H]4CCCN4C(=O)[C@H](Cc4ccccc4)N3C2=O)C[C@@H]2c3cccc4[nH]cc(c34)C[C@H]21 [DIHYDROERGOTAMINE MESYLATE]', 'low'),
  ('Cc1cccc([C@H](C)c2cnc[nH]2)c1C [DEXMEDETOMIDINE HYDROCHLORIDE]', 'high'),
  ('CCCCN1CCC(COC(=O)c2cc(Cl)c(N)c3c2OCCO3)CC1', 'high'),
  ('CN1CCCC(n2nc(Cc3ccc(Cl)cc3)c3ccccc3c2=O)CC1 (configuration not stated) [AZELASTINE HYDROCHLORIDE]', 'mid'),
  ('N#Cc1ccc2[nH]cc(CCCCN3CCN(c4ccc5oc(C(N)=O)cc5c4)CC3)c2c1 [VILAZODONE HYDROCHLORIDE]', 'mid'),
  ('Cc1nc2sccn2c(=O)c1CCN1CCC(=C(c2ccc(F)cc2)c2ccc(F)cc2)CC1', 'low'),
  ('CCc1nn(CCCN2CCN(c3cccc(Cl)c3)CC2)c(=O)n1CCOc1ccccc1 [NEFAZODONE HYDROCHLORIDE]', 'low'),
  ('CCCCCNC(=N)N/N=C/c1c[nH]c2ccc(OC)cc12 [TEGASEROD MALEATE]', 'high'),
  ('O=c1ccc2ccc(OCCCCN3CCN(c4cccc5sccc45)CC3)cc2[nH]1', 'low'),
  ('Cc1ccc2c(c1)c1c(n2CCc2ccc(C)nc2)CCN(C)C1 [LATREPIRDINE]', 'mid'),
  ('NCCc1cn(S(=O)(=O)c2c(Cl)nc3sccn23)c2ccccc12', 'high');

###

pKi overview
- studyTarget: Sigma non-opioid intracellular receptor 1 (Homo sapiens)
- Sequence (Q99720 whole entry): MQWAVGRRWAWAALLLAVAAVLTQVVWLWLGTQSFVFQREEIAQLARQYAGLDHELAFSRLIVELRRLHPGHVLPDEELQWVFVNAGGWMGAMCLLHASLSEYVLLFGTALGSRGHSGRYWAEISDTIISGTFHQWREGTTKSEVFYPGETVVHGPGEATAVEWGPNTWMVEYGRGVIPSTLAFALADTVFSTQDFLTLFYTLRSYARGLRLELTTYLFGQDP
- experiment: PDSP Secondary Binding target: SIGMAR1 - Compounds are tested at 10 uM concentration, plate are incubated at room temperature in the dark for 90 minutes. Reaction are stopped by vacuum filtration onto 0.3% polyethyleneimine soaked filter mats using Filtermate harvester. Scintillation cocktail is then melted onto microwave-dried filters on a hot plate and the radio activity is counted in Microbia counter.
pKi: −log10 of the molar value. Counter-ions that a name gives are not always drawn.
quantity: pKi

INSERT INTO assay_data (compound, valuequalifier, resultvalue) VALUES
  ('Cc1cc(C)cc(-c2cnc3cc(Cl)c(-c4cccc(O)c4)cc3c2OCCCN)c1', '<', 5.00),
  ('CCc1nn2c(C)cc(C)nc2c1Cc1ccc(-c2nnc(C3CCNCC3)o2)cc1', '=', 5.70),
  ('CCc1ccc(OCc2ccccc2C(=O)Nc2ccc3nc(C)cc(N)c3c2)cc1', '=', 5.64),
  ('Cc1csc2c(N[C@@H](C)CN3CCN(S(=O)(=O)c4ccc(Cl)c(Cl)c4)CC3)ncnc12', '=', 6.02),
  ('Cc1c(C(=O)NC2CCCCC2)sc2nc3ccc(N)cc3n12', '=', 6.04),
  ('CC(C)NCC(O)COc1cccc2ccccc12 (stereo not given) [PROPRANOLOL HYDROCHLORIDE]', '=', 7.02),
  ('CCCCCNC(=N)N/N=C/c1c[nH]c2ccc(OC)cc12 [TEGASEROD MALEATE]', '=', 6.75),
  ('FC(F)(F)c1c(N2CCC(c3ccccc3)CC2)ccn2c(CC3CC3)nnc12', '=', 6.01),
  ('COc1ccccc1N1CCN(CCCCNC(=O)c2ccc3ccccc3c2)CC1', '=', 6.59),
  ('CC(C)NC(=O)c1ccc(C#Cc2ccncc2)cn1', '=', 5.96),
  ('CN1CCN(c2ccc(Nc3c4ccccc4nc4ccccc34)cc2)CC1', '=', 6.38),
  ('COc1cccc([C@@H](C)NCCCc2ccccc2Cl)c1 [TECALCET HYDROCHLORIDE]', '=', 7.38),
  ('Cc1nc(C#Cc2ccnc(Cl)c2)c(C)n1-c1ccc(OC(F)(F)F)cc1', '=', 5.57),
  ('COc1cc(-n2cnc3cc(-c4ccc(Cl)cc4)sc3c2=O)ccc1OCCN1CCCC1', '=', 7.92),
  ('N#Cc1c[nH]c2c(C(=O)N3CCN(CCc4ccc(F)cc4)CC3)cccc12 [PRUVANSERIN]', '=', 6.75),
  ('COc1ccc(NC(=O)c2ccc(-c3ccc(-c4noc(C)n4)cc3C)cc2)cc1OCCN(C)C', '=', 5.51),
  ('CC(C)(C)NC[C@H](O)COc1nsnc1N1CCOCC1 [TIMOLOL]', '=', 6.41),
  ('Clc1cccc(COc2cncc(N3CCNCC3)n2)c1', '=', 7.49),
  ('Cc1nc(-c2ccc(-c3ccc(C(=O)N4CCc5cc6c(cc54)C4(CCN(C)CC4)CO6)cc3)c(C)c2)no1 [SB-224289]', '=', 5.36),
  ('CCCCN1CCC(COC(=O)c2cc(Cl)c(N)c3c2OCCO3)CC1', '=', 7.50);

###

- studyTarget: 5-hydroxytryptamine receptor 5A (Homo sapiens)
- Sequence (P47898 whole entry): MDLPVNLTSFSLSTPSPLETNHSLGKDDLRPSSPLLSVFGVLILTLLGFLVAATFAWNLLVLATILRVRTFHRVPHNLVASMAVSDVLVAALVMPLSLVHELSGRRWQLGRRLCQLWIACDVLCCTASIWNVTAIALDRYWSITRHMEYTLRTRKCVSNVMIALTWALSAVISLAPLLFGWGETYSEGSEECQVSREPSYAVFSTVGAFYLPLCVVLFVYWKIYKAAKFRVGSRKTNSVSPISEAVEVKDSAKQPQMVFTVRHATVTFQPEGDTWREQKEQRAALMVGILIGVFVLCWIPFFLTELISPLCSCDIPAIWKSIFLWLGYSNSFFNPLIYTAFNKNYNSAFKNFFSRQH
- experiment: PDSP Secondary Binding target: HTR5A - Compounds are tested at 10 uM concentration, plate are incubated at room temperature in the dark for 90 minutes. Reaction are stopped by vacuum filtration onto 0.3% polyethyleneimine soaked filter mats using Filtermate harvester. Scintillation cocktail is then melted onto microwave-dried filters on a hot plate and the radio activity is counted in Microbia counter.
Structures can show the parent of a compound that is named as a salt.
# note: exactly 800 nM is not below, so it is Condition not met; use Condition met for Ki strictly under it

INSERT INTO assay_data (compound, studytarget, assignedlabel) VALUES
  ('COc1ccc(NS(=O)(=O)c2sc3ccc(Cl)cc3c2C)cc1N1CCNCC1', '5-hydroxytryptamine receptor 5A (Homo sapiens)', 'Condition not met'),
  ('CCCCCNC(=N)N/N=C/c1c[nH]c2ccc(OC)cc12 [TEGASEROD MALEATE]', '5-hydroxytryptamine receptor 5A (Homo sapiens)', 'Condition met'),
  ('S=C(NCCCc1c[nH]cn1)NCCCN(Cc1ccc(Cl)c(Cl)c1)c1ccc(Br)cn1', '5-hydroxytryptamine receptor 5A (Homo sapiens)', 'Condition not met'),
  ('COc1ccccc1N1CCN(CCCCNC(=O)c2ccc3ccccc3c2)CC1', '5-hydroxytryptamine receptor 5A (Homo sapiens)', 'Condition met'),
  ('O=S1(=O)c2cccc3cccc(c23)N1CCCN1CCN(c2ccc(F)cc2)CC1', '5-hydroxytryptamine receptor 5A (Homo sapiens)', 'Condition not met'),
  ('Cc1ccc2c(c1)c1c(n2CCc2ccc(C)nc2)CCN(C)C1 [LATREPIRDINE]', '5-hydroxytryptamine receptor 5A (Homo sapiens)', 'Condition met'),
  ('NCCc1c[nH]c2ccc(C(N)=O)cc12', '5-hydroxytryptamine receptor 5A (Homo sapiens)', 'Condition met'),
  ('COc1ccc(NC(=O)c2ccc(-c3ccc(-c4noc(C)n4)cc3C)cc2)cc1OCCN(C)C', '5-hydroxytryptamine receptor 5A (Homo sapiens)', 'Condition not met');

###

Counter-ions that a name gives are not always drawn.
Notes on log10(Ki) obtained with Alpha-2B adrenergic receptor (Homo sapiens).
Sequence (P18089 whole entry): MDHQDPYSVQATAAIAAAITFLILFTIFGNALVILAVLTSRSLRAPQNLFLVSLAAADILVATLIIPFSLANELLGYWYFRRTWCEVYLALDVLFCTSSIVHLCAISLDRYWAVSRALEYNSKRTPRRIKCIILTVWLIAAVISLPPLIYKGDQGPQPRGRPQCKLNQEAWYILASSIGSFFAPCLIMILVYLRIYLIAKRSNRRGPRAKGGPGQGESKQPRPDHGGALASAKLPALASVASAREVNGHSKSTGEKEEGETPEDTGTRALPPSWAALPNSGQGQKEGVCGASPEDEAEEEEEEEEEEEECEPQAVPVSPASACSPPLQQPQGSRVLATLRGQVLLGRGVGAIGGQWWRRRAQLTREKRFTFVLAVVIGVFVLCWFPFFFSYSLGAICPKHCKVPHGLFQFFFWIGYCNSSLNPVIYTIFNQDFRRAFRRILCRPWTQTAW
quantity: log10(Ki) (log10 of the value in nM)

INSERT INTO measurements (compound, resultvalue) VALUES
  ('CCOC(=O)c1c(C)[nH]c2ccc3c(c12)CN1CCc2cc(OC)ccc2C1O3 (stereo not drawn)', 3.51),
  ('COc1ccccc1N1CCN(CCCCNC(=O)c2ccc3ccccc3c2)CC1', 2.12),
  ('Cc1cccc([C@H](C)c2cnc[nH]2)c1C [DEXMEDETOMIDINE HYDROCHLORIDE]', 1.08),
  ('Cc1nc(-c2ccc(-c3ccc(C(=O)N4CCc5cc6c(cc54)C4(CCN(C)CC4)CO6)cc3)c(C)c2)no1 [SB-224289]', 3.34),
  ('Cc1ccc2c(c1)c1c(n2CCc2ccc(C)nc2)CCN(C)C1 [LATREPIRDINE]', 1.66),
  ('CC1CCN(CC[C@H]2CCCN2S(=O)(=O)c2cccc(O)c2)CC1', 2.49),
  ('O=c1ccc2ccc(OCCCCN3CCN(c4cccc5sccc45)CC3)cc2[nH]1 [BREXPIPRAZOLE]', 2.28),
  ('CN1CCCC(n2nc(Cc3ccc(Cl)cc3)c3ccccc3c2=O)CC1 (stereo not drawn) [AZELASTINE HYDROCHLORIDE]', 2.36),
  ('COc1cccc([C@@H](C)NCCCc2ccccc2Cl)c1 [TECALCET HYDROCHLORIDE]', 2.98),
  ('COc1ccc(NC(=O)c2ccc(-c3ccc(-c4noc(C)n4)cc3C)cc2)cc1OCCN(C)C', 2.82),
  ('CCCCCNC(=N)N/N=C/c1c[nH]c2ccc(OC)cc12 [TEGASEROD MALEATE]', 3.45),
  ('OC1(c2ccc(Cl)cc2)CCN(Cc2c[nH]c3ccccc23)CC1', 2.78),
  ('CCc1nn(CCCN2CCN(c3cccc(Cl)c3)CC2)c(=O)n1CCOc1ccccc1 [NEFAZODONE HYDROCHLORIDE]', 2.28),
  ('S=C(NCCCc1c[nH]cn1)NCCCN(Cc1ccc(Cl)c(Cl)c1)c1ccc(Br)cn1', 2.71),
  ('Cc1nn(C)c(C)c1-c1cccc2c1CC[C@H](N(C)C)C2', 2.03),
  ('CN(C)C(=O)N[C@H]1CC[C@H](CCN2CCN(c3cccc(Cl)c3Cl)CC2)CC1 [CARIPRAZINE HYDROCHLORIDE]', 3.04);
